# System: E. coli J3272 Tet sens.
# assayComment: MIC, agar dilution (Table IA)
# Format: cell-based
# conditionSummary: unit assumed
measurementType: Antibacterial activity (MIC)

[
  {
    "molecule": "CN(C)CC(=O)Nc1cc(N(C)C)c2c(c1O)C(=O)C1=C(O)[C@]3(O)C(=O)C(C(N)=O)=C(O)[C@@H](N(C)C)C3CC1C2.Cl.Cl (stereo partly drawn) [KK]",
    "testValue": "0.12 µg/mL"
  },
  {
    "molecule": "CCCNCC(=O)Nc1cc(N(C)C)c2c(c1O)C(=O)C1=C(O)C3(O)C(=O)C(C(N)=O)=C(O)C(N(C)C)C3CC1C2.Cl.Cl (stereo not drawn) [WW]",
    "testValue": "0.25 µg/mL"
  },
  {
    "molecule": "Br.CC(Br)C(=O)Nc1cc(N(C)C)c2c(c1O)C(=O)C1=C(O)C3(O)C(=O)C(C(N)=O)=C(O)C(N(C)C)C3CC1C2 (stereo not drawn) [JJJ]",
    "testValue": "> 32 µg/mL"
  },
  {
    "molecule": "CCCCNCC(=O)Nc1cc(N(C)C)c2c(c1O)C(=O)C1=C(O)C3(O)C(=O)C(C(N)=O)=C(O)C(N(C)C)C3CC1C2.Cl.Cl (stereo not drawn) [PP]",
    "testValue": "0.5 µg/mL"
  },
  {
    "molecule": "CN(C)c1cc(NC(=O)CN2CCOCC2)c(O)c2c1CC1CC3[C@H](N(C)C)C(O)=C(C(N)=O)C(=O)[C@@]3(O)C(O)=C1C2=O.Cl.Cl (stereo partly drawn) [NN]",
    "testValue": "> 32 µg/mL"
  },
  {
    "molecule": "CNCC(=O)Nc1cc(N(C)C)c2c(c1O)C(=O)C1=C(O)[C@]3(O)C(=O)C(C(N)=O)=C(O)[C@@H](N(C)C)C3CC1C2.Cl.Cl (stereo partly drawn) [MM]",
    "testValue": "1 µg/mL"
  }
]
